// MIC lookup, one value per entry
system: Escherichia coli; test: Antimicrobial activity against Escherichia coli 3190Y after 18 hrs by twofold agar dilution method; type: functional

-- ask Name the recorded MIC of the compound listed here: C[C@H](CO)[C@H]1CC[C@H]2[C@@H]3CC[C@H]4C[C@@H](NCCCNCCCCNCCCN)CC[C@]4(C)[C@H]3CC[C@]12C.Cl.Cl.Cl.Cl
-- reply > 32 µg/mL

-- ask Name the recorded MIC of the compound listed here: C[C@H](CO)[C@H]1CC[C@H]2[C@@H]3CC[C@@H]4C[C@@H](NCCCNCCCCN)CC[C@]4(C)[C@H]3CC[C@]12C.Cl.Cl.Cl
-- reply > 32 µg/mL

-- ask Name the recorded MIC of the compound listed here: C[C@H](CO)[C@H]1CC[C@H]2[C@@H]3CC[C@H]4C[C@@H](NCCCNCCCCN)CC[C@]4(C)[C@H]3CC[C@]12C.Cl.Cl.Cl
-- reply > 32 µg/mL

###

test system: Bacillus subtilis; assay: Antimicrobial activity against Bacillus subtilis ATCC 6633 after 18 hrs by twofold agar dilution method; format: functional; conditions: ATCC 6633, 18 h
measure.name: MIC (µg/mL)
Write down the numeric answer in µg/mL and omit the unit.

structure.smiles	MIC, µg/mL
C[C@H](CO)[C@H]1CC[C@H]2[C@@H]3CC[C@@H]4C[C@@H](NCCCNCCCCN)CC[C@]4(C)[C@H]3CC[C@]12C.Cl.Cl.Cl	8

-- ask Name the recorded MIC of the molecule listed here: C[C@H](CO)[C@H]1CC[C@H]2[C@@H]3[C@H](N)C[C@H]4C[C@@H](NCCCNCCCCN)CC[C@]4(C)[C@H]3CC[C@]12C.Cl.Cl.Cl
-- reply 16

-- ask Name the recorded MIC of the molecule listed here: C[C@H](CO)[C@H]1CC[C@H]2[C@@H]3[C@H](O)C[C@H]4C[C@@H](NCCCNCCCCN)CC[C@]4(C)[C@H]3CC[C@]12C.Cl.Cl.Cl
-- reply 16

-- ask Name the recorded MIC of the molecule listed here: C[C@H](CO)[C@H]1CC[C@H]2[C@@H]3CC[C@@H]4C[C@@H](NCCCNCCCCNCCCN)CC[C@]4(C)[C@H]3CC[C@]12C.Cl.Cl.Cl.Cl
-- reply 2

-- ask Name the recorded MIC of the molecule listed here: C[C@H](CO)[C@H]1CC[C@H]2[C@@H]3CC[C@H]4C[C@@H](NCCCNCCCCNCCCN)CC[C@]4(C)[C@H]3CC[C@]12C.Cl.Cl.Cl.Cl
-- reply 8

-- ask Name the recorded MIC of the molecule listed here: C[C@H](CO)[C@H]1CC[C@H]2[C@@H]3CC[C@H]4C[C@@H](NCCCNCCCCN)CC[C@]4(C)[C@H]3CC[C@]12C.Cl.Cl.Cl
-- reply 8

-- ask Name the recorded MIC of the molecule listed here: C[C@H](CO)[C@H]1CC[C@H]2[C@@H]3CC[C@H]4C[C@H](NCCCNCCCCNCCCN)CC[C@]4(C)[C@H]3CC[C@]12C.Cl.Cl.Cl.Cl
-- reply 8

-- ask Name the recorded MIC of the molecule listed here: C[C@H](CO)[C@H]1CC[C@H]2[C@@H]3CC[C@@H]4C[C@H](NCCCNCCCCNCCCN)CC[C@]4(C)[C@H]3CC[C@]12C.Cl.Cl.Cl.Cl
-- reply 8

-- ask Name the recorded MIC of the molecule listed here: C[C@H](CO)[C@H]1CC[C@H]2[C@@H]3CC[C@@H]4C[C@H](NCCCNCCCCN)CC[C@]4(C)[C@H]3CC[C@]12C.Cl.Cl.Cl
-- reply 32

-- ask Name the recorded MIC of the molecule listed here: C[C@H](CO)[C@H]1CC[C@H]2[C@@H]3CC[C@H]4C[C@H](NCCCNCCCCN)CC[C@]4(C)[C@H]3CC[C@]12C.Cl.Cl.Cl
-- reply 8

-- ask Name the recorded MIC of the molecule listed here: C[C@H](CO)[C@H]1CC[C@H]2[C@@H]3[C@H](F)C[C@H]4C[C@@H](NCCCNCCCCN)CC[C@]4(C)[C@H]3CC[C@]12C.Cl.Cl.Cl
-- reply 16
